Examples of compounds with documented half-life follow.
- Assay Text: Half-life in male Sprague-Dawley rat at 10 mg/kg, po administered as single dose by LC-MS/MS analysis
- Format: ADME, organism-based
- Condition Parameters: in vivo

Compound	half-life, h
C=CC(=O)N1CCN(c2c(C#N)c(=O)n(-c3c(C)ccnc3C(C)C)c3nc(-c4c(N)c(Cl)cc(Cl)c4F)c(F)cc23)CC1	2.26
C=CC(=O)N1CCN(c2c(C#N)c(=O)n(-c3c(C)ccnc3C(C)C)c3nc(-c4c(O)cccc4F)c(F)cc23)CC1	1.28
C=CC(=O)N1CCN(c2c(C#N)c(=O)n(-c3c(C)ccnc3C(C)C)c3nc(-c4c(N)c(F)c(F)c(F)c4F)c(Cl)cc23)CC1 (atropisomer M)	1.2
C=CC(=O)N1CCN(c2c(C#N)c(=O)n(-c3c(C)ccnc3C(C)C)c3nc(-c4c(O)cccc4F)c(F)cc23)CC1CC#N (stereo not drawn)	1.13
C=CC(=O)N1CCN(c2c(C#N)c(=O)n(-c3c(C)ccnc3C(C)C)c3nc(-c4c(N)c(Cl)cc(Cl)c4F)c(Cl)cc23)CC1 (atropisomer M)	2.17
C=CC(=O)N1CCN(c2c(C#N)c(=O)n(-c3c(C)ccnc3C(C)C)c3nc(-c4ccccc4F)c(F)cc23)CC1	4.1
C=CC(=O)N1[C@H](C)CN(c2c(C#N)c(=O)n(-c3c(C)ccnc3C(C)C)c3nc(-c4c(O)cccc4F)c(F)cc23)C[C@@H]1C	2.1
C=CC(=O)N1CCN(c2c(C#N)c(=O)n(-c3c(C)ccnc3C(C)C)c3nc(-c4c(F)c(F)c(F)c(N)c4Cl)c(Cl)cc23)CC1 (atropisomer M)	1.78

---

- Assay Text: Half-life in cynomolgus monkey at 3 mg/kg, po administered as single dose by LC-MS/MS analysis
- Assay type: ADME, organism-based, Macaca fascicularis
- Condition Parameters: in vivo

Compound	half-life [h]
C=CC(=O)N1CCN(c2c(C#N)c(=O)n(-c3c(C)ccnc3C(C)C)c3nc(-c4c(N)c(F)c(F)c(F)c4F)c(Cl)cc23)CC1 (atropisomer M) [GLECIRASIB]	3.84

---

- Assay Text: Oral bioavailability in male Beagle dog at 3 mg/kg administered as single dose by LC-MS/MS analysis
- Type: ADME, organism-based, Canis lupus familiaris
- Condition Parameters: in vivo
Endpoint: bioavailability (%)

Molecule	Reported Measurement
C=CC(=O)N1CCN(c2c(C#N)c(=O)n(-c3c(C)ccnc3C(C)C)c3nc(-c4c(N)c(F)c(F)c(F)c4F)c(Cl)cc23)CC1 (atropisomer M)	75.5
C=CC(=O)N1CCN(c2c(C#N)c(=O)n(-c3c(C)ccnc3C(C)C)c3nc(-c4c(F)c(F)c(F)c(N)c4Cl)c(Cl)cc23)CC1 (atropisomer M)	33.2

---

- Assay Text: Half-life in female BALB/c mouse at 3 mg/kg, iv administered as single dose by LC-MS/MS analysis
- Type: ADME, organism-based
- Condition Parameters: in vivo

Compound	Unit Symbol	half-life
C=CC(=O)N1CCN(c2c(C#N)c(=O)n(-c3c(C)ccnc3C(C)C)c3nc(-c4c(N)c(Cl)cc(Cl)c4F)c(Cl)cc23)CC1 (atropisomer M)	min	65.4
C=CC(=O)N1CCN(c2c(C#N)c(=O)n(-c3c(C)ccnc3C(C)C)c3nc(-c4c(N)cccc4F)c(Cl)cc23)CC1	min	17.8
C=CC(=O)N1CCN(c2c(C#N)c(=O)n(-c3c(C)ccnc3C(C)C)c3nc(-c4c(N)c(F)c(F)c(F)c4F)c(Cl)cc23)CC1 (atropisomer M)	min	33.6
